Test system: HeLa Kyoto
Assay: thermal stability score vs G1/S (z-score of summed log2 fold changes over temperatures); higher = more thermally stable than in G1/S
Settings: cell cycle stage: mitosis
observation type: thermal stability score
// return just the number, without any unit appended

Input line: State, in one line, measured thermal stability score of MGQIEWAMWANEQALASGLILITGGIVATAGRFTQWYFGAYSIVAGVFVCLLEYPRGKRKKGSTMERWGQKYMTAVVKLFGPFTRNYYVRAVLHLLLSVPAGFLLATILGTACLAIASGIYLLAAVRGEQWTPIEPKPRERPQIGGTIKQPPSNPPPRPPAEARKKPSEEEAAVAAGGPPGGPQVNPIPVTDEVV [CYBA]
Output line: -1.21

---
Input line: State, in one line, measured thermal stability score of MSSRKQGSQPRGQQSAEEENFKKPTRSNMQRSKMRGASSGKKTAGPQQKNLEPALPGRWGGRSAENPPSGSVRKTRKNKQKTPGNGDGGSTSEAPQPPRKKRARADPTVESEEAFKNRMEVKVKIPEELKPWLVEDWDLVTRQKQLFQLPAKKNVDAILEEYANCKKSQGNVDNKEYAVNEVVAGIKEYFNVMLGTQLLYKFERPQYAEILLAHPDAPMSQVYGAPHLLRLFVRIGAMLAYTPLDEKSLALLLGYLHDFLKYLAKNSASLFTASDYKVASAEYHRKAL [MORF4L2]
Output line: 0.257

---

// reported thermal stability score per item
Tested on: HeLa Kyoto;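 note: synchronized HeLa Kyoto cells, proteins quantified by TMT10plex mass spectrometry, three biological replicates, mitosis taken 0.5 h after nocodazole release, G1/S directly after double thymidine block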
Assay: thermal stability score vs G1/S (z-score of summed log2 fold changes over temperatures); higher = more thermally stable than in G1/S
Conditions: cell cycle stage: early G1 (4.5 h after nocodazole release)
// return just the number, without any unit appended

Input line: State, in one line, measured thermal stability score of MDPAARVVRALWPGGCALAWRLGGRPQPLLPTQSRAGFAGAAGGPSPVAAARKGSPRLLGAAALALGGALGLYHTARWHLRAQDLHAERSAAQLSLSSRLQLTLYQYKTCPFCSKVRAFLDFHALPYQVVEVNPVRRAEIKFSSYRKVPILVAQEGESSQQLNDSSVIISALKTYLVSGQPLEEIITYYPAMKAVNEQGKEVTEFGNKYWLMLNEKEAQQVYGGKEARTEEMKWRQWADDWLVHLISPNVYRTPTEALASFDYIVREGKFGAVEGAVAKYMGAAAMYLISKRLKSRHRLQDNVREDLYEAADKWVAAVGKDRPFMGGQKPNLADLAVYGVLRVMEGLDAFDDLMQHTHIQPWYLRVERAITEASPAH [PTGES2]
Output line: 1.5

Input line: State, in one line, measured thermal stability score of MGNSALRAHVETAQKTGVFQLKDRGLTEFPADLQKLTSNLRTIDLSNNKIESLPPLLIGKFTLLKSLSLNNNKLTVLPDEICNLKKLETLSLNNNHLRELPSTFGQLSALKTLSLSGNQLGALPPQLCSLRHLDVMDLSKNQIRSIPDSVGELQVIELNLNQNQISQISVKISCCPRLKILRLEENCLELSMLPQSILSDSQICLLAVEGNLFEIKKLRELEGYDKYMERFTATKKKFA [LRRC57]
Output line: -0.373

Consider now this further sequence.
Input line: State, in one line, measured thermal stability score of MGLETEKADVQLFMDDDSYSHHSGLEYADPEKFADSDQDRDPHRLNSHLKLGFEDVIAEPVTTHSFDKVWICSHALFEISKYVMYKFLTVFLAIPLAFIAGILFATLSCLHIWILMPFVKTCLMVLPSVQTIWKSVTDVIIAPLCTSVGRCFSSVSLQLSQD [CAV2]
Output line: -1.45
